test-summary: gradient 5% acetonitrile 3 min, to 50% in 2 min, to 85% in 15 min, held 3 min, 100 µL/min
recorded-conditions: column: Zorbax Extend-C18 2.1 x 50 mm; eluents: water / acetonitrile, 0.1% formic acid
# RP-LC retention time per record follows

{"substance-smiles": "c1ccc(N2CCN(Cc3nc(-c4ccc(N5CCSCC5)nc4)no3)CC2)cc1", "unit-label": "s", "RP-LC retention time": 937}
{"substance-smiles": "O=c1n(Cc2ccc(F)cc2Cl)nc2c(S(=O)(=O)N3CCCC3)cccn12", "unit-label": "s", "RP-LC retention time": 1020}
{"substance-smiles": "COc1ccc(OC)c(NC(=O)N2CCC(CC(=O)NCc3ccc(F)cc3)CC2)c1", "unit-label": "s", "RP-LC retention time": 803}
{"substance-smiles": "COc1ccc(OC)c(Nc2c(-c3ccc(N(C)C)cc3)nc3cnccn23)c1", "unit-label": "s", "RP-LC retention time": 796}
{"substance-smiles": "COc1ccc(-c2ccnc3nc(C4CCC4)nn23)c(F)c1", "unit-label": "s", "RP-LC retention time": 869}

* * *

test-summary: gradient 5% acetonitrile 3 min, to 50% in 2 min, to 85% in 15 min, held 3 min, 100 µL/min
recorded-conditions: column: Zorbax Extend-C18 2.1 x 50 mm; eluents: water / acetonitrile, 0.1% formic acid
Label MET when RP-LC retention time is at or above 700 s; anything below gets NOT MET.

{"compound": "CN(C)C(=O)c1csc(S(=O)(=O)N2CCC(C(=O)NCc3ccc(F)cc3)CC2)c1", "classification": "MET"}
{"compound": "COc1cc(NC(=O)N2CC(C)Oc3ccccc32)cc(OC)c1OC (stereo unspecified)", "classification": "MET"}
{"compound": "COC(=O)c1cc2c(=O)n(-c3ccc(Cl)cc3Cl)ccc2nc1C", "classification": "MET"}
{"compound": "Cc1ccc2c(c1)C(=O)NC1(CCN(C(=O)Cc3cccc(F)c3)CC1)N2C", "classification": "MET"}
{"compound": "COC(=O)Nc1ccc(-c2nc(N3CCOCC3)c3cnn(C4CCN(Cc5cccnc5)CC4)c3n2)cc1", "classification": "NOT MET"}

* * *

test-summary: gradient 5% acetonitrile 3 min, to 50% in 2 min, to 85% in 15 min, held 3 min, 100 µL/min
recorded-conditions: column: Zorbax Extend-C18 2.1 x 50 mm; eluents: water / acetonitrile, 0.1% formic acid

{"compound": "NC(=O)c1cccc2ncc(-c3ccc(Cl)cc3)nc12", "RP-LC retention time [s]": 831}
{"compound": "COc1cc(CC(=O)N2CCN(c3cc(C)n4cnnc4n3)CC2)cc(OC)c1", "RP-LC retention time [s]": 607}
{"compound": "COc1cccc(S(=O)(=O)N2CCC3(CC2)CC(OC)CCO3)c1 (centres undefined)", "RP-LC retention time [s]": 865}
{"compound": "CCCNc1cc(N2CCC(CCC(=O)N3CCC(C(=O)OCC)CC3)CC2)ncn1", "RP-LC retention time [s]": 664}

* * *

test-summary: gradient 5% acetonitrile 3 min, to 50% in 2 min, to 85% in 15 min, held 3 min, 100 µL/min
recorded-conditions: column: Zorbax Extend-C18 2.1 x 50 mm; eluents: water / acetonitrile, 0.1% formic acid

{"substance-smiles": "CCOc1cccc(-c2noc(Cn3c(=O)n(CCCOC)c(=O)c4ccccc43)n2)c1", "RP-LC retention time": "1040 s"}
{"substance-smiles": "CCN(CC)S(=O)(=O)c1ccc(NC(=O)c2oc3c(c2C)C(=O)CC(C)(C)C3)cc1", "RP-LC retention time": "982 s"}
{"substance-smiles": "O=C(Nc1nc(-c2ccc3ccccc3c2)cs1)c1ccc(Cl)cc1Cl", "RP-LC retention time": "1220 s"}
{"substance-smiles": "CN(C)S(=O)(=O)c1ccc(C(=O)Nc2nc(-c3ccc4c(c3)NC(=O)CO4)cs2)cc1", "RP-LC retention time": "810 s"}
{"substance-smiles": "Cc1noc([C@@H]2CN(C(=O)CC3CCCC3)C[C@H]2CO)n1", "RP-LC retention time": "672 s"}
{"substance-smiles": "CC(C)N1C(=O)c2cccnc2Sc2cc(NC(=O)c3ccsc3)ccc21", "RP-LC retention time": "832 s"}
{"substance-smiles": "COc1cccc(N2CCN(C(=O)Cn3ccc4c(c(C)nn4-c4ccccc4)c3=O)CC2)c1", "RP-LC retention time": "828 s"}
{"substance-smiles": "O=S(=O)(Cc1ccc(Cl)cc1)N1CCc2nc(-c3ccc(Cl)cc3)ncc2C1", "RP-LC retention time": "1210 s"}
{"substance-smiles": "O=C(Nc1cccn2ncnc12)c1cccs1", "RP-LC retention time": "690 s"}
{"substance-smiles": "Cc1ccc(-c2nnc(Cc3nc(-c4ccccc4Cl)no3)o2)cc1F", "RP-LC retention time": "1110 s"}
{"substance-smiles": "CCOC(=O)O[C@]1(C(=O)OCCl)CC[C@H]2[C@@H]3CCC4=CC(=O)C=C[C@]4(C)[C@H]3[C@@H](O)C[C@@]21C", "RP-LC retention time": "1150 s"}
{"substance-smiles": "CCOC(=O)c1c(S(=O)(=O)N2CCC(C(=O)NCc3ccc(C)o3)CC2)c(C)n(C)c1C", "RP-LC retention time": "764 s"}
{"substance-smiles": "CCOC(=O)N1CCN(C(=O)CSc2ccc(C)cc2)CC1", "RP-LC retention time": "765 s"}
{"substance-smiles": "CN(C)c1cccc(-c2nc(-c3ccc4c(c3)nnn4CCN3CCOCC3)no2)c1", "RP-LC retention time": "706 s"}
{"substance-smiles": "CN(CC1CCOCC1)S(=O)(=O)Cc1cccc(Cl)c1", "RP-LC retention time": "835 s"}
